- MEASUREMENT_TARGET: membrane-bound tripeptidylpeptidase II (Rattus norvegicus, UniProt Q64560)
- Sequence (Q64560 whole entry): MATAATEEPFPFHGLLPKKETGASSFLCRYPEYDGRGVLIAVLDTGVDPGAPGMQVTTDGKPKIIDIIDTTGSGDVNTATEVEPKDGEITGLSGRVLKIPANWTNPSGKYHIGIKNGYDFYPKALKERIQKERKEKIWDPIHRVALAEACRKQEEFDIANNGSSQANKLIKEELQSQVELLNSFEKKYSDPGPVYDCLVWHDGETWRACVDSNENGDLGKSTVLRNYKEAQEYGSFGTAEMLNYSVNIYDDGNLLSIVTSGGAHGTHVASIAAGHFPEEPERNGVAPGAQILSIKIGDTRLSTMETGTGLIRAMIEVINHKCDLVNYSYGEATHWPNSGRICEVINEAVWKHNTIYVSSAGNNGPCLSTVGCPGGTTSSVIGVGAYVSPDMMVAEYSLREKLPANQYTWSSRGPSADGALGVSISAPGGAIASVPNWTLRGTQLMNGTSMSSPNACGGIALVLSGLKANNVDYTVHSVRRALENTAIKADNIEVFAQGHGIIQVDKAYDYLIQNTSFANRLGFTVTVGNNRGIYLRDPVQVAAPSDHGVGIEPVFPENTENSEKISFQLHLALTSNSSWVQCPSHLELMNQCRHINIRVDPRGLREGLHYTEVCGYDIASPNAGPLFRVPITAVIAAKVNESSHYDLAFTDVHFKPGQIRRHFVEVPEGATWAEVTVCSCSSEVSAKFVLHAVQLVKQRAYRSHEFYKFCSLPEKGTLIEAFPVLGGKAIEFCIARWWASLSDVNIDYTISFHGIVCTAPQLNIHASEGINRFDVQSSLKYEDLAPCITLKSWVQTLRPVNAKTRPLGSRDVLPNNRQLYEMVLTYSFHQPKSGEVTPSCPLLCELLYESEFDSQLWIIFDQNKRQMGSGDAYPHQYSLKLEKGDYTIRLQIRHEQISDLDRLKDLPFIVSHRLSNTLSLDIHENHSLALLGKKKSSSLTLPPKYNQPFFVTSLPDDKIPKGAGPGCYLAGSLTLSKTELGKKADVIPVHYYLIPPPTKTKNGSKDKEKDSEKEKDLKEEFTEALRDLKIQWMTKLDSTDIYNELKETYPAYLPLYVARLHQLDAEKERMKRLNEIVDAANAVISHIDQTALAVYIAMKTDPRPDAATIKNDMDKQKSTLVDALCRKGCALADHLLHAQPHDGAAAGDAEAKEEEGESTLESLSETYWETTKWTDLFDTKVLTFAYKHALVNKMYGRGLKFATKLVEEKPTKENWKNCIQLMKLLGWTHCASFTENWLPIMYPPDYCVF
- EXPERIMENTAL_PROTOCOL: Measurement of the activity of membrane-bound tripeptidylpeptidase (release of Amc from A-AP-Amc, fluorimetry)
- PROTOCOL_CONDITIONS: Ki, apparent dissociation constant calculated from the 50% inhibitory concentration and the KM of the substrate (23 μM); rat brain membranes, 50 μM A-AP-Amc
pKi: −log10 of the molar value. Structures can show the parent of a compound that is named as a salt. Where a SMILES comes first, the peptide text is derived from it. [ ]: non-standard residue; d: D form. The star is where a group is joined. Abu = CC[C@H](N)C(=O)O; NHBu = CCCCN*
OUTCOME_MEASURE: pKi

Sample records with pKi:
CCCCNC(=O)C1c2ccccc2CN1C(=O)[C@@H](N)CC (mixture of isomers) | 6.84
CCCCNC(=O)[C@@H]1CCCN1C(=O)[C@@H](N)CC [Example 4] (H-[Abu]-Pro-NHBu) | 7.00

1. CCCCNC(=O)C1Cc2cc(OC)ccc2N1C(=O)[C@@H](N)C(C)C (mixture of isomers) [Example 24, Oxalate]
2. CCCCNC(=O)C1Cc2ccc(OC)cc2N1C(=O)[C@@H](N)CC (mixture of isomers)
Kindly identify the item with the lower pKi figure among these two: 1 and 2 Label of pick, please.
1
(1: 6.84, 2: 7.11)
